Data provenance is ChEMBL document CHEMBL1201862.

Test system: HCT-15
assay endpoint: GI50 (µM)

INSERT INTO assay_data (compound, assay_system, assay_endpoint, qualifying_sign, reported_measurement) VALUES
  ('O=C(O)C1(Nc2ccc(Cl)cc2)CCCC1', 'HCT-15', 'GI50', '=', 11.5),
  ('CCCCCCCCCC(=O)N[C@@H](c1ccco1)[C@@H](O)C(=O)O[C@H]1C[C@@]2(O)[C@@H](OC(=O)c3ccccc3)[C@@H]3[C@]4(OC(C)=O)CO[C@@H]4C[C@H](O)[C@@]3(C)C(=O)[C@H](OC(C)=O)C(=C1C)C2(C)C', 'HCT-15', 'GI50', '=', 0.752),
  ('O=C(Nc1ccn(C2CCC(CO)O2)c(=O)n1)c1ccccc1 (stereo not drawn)', 'HCT-15', 'GI50', '>', 100),
  ('c1ccc2c(c1)[n-]n1c3ccc4nonc4c3n[n+]21', 'HCT-15', 'GI50', '>', 100),
  ('COc1cc(C(=O)N[C@H]2CCc3cc(OC)c(OC)c(OC)c3-c3ccc(SC)c(=O)cc32)cc(OC)c1OC', 'HCT-15', 'GI50', '=', 0.444),
  ('C#CC1(O)CCC2C3CCc4cc(Oc5nc(F)nc(-c6c7ccccc7c7sc8ccccc8n67)n5)ccc4C3CC[C@@]21C (stereo partly drawn)', 'HCT-15', 'GI50', '>', 100),
  ('COc1cccc2c1OC(c1cccc3ccccc13)C([N+](=O)[O-])=C2 (stereo not drawn)', 'HCT-15', 'GI50', '=', 1.55),
  ('COc1ccc2oc3c(OC)c(OC)c(OC)cc3c(=O)c2c1', 'HCT-15', 'GI50', '>', 100);
